These measurements were taken from the supplement of paper PMC5908809.

tested on: normal NK cells expanded with K562-aAPC; assay: percent inhibition of viability; higher = more inhibition; conditions: 72 h; IL-2 2.5 ng/mL; 0.1 nM
Below is a list of entries, each paired with its recorded percent inhibition of viability value.

Observe how each entry below is paired with its result.
INSERT INTO assay_data (molecule, testreadout, observedvalue) VALUES
  ('CO[C@H]1C[C@@H]2CC[C@@H](C)[C@@](O)(O2)C(=O)C(=O)N2CCCC[C@H]2C(=O)O[C@H]([C@H](C)C[C@@H]2CC[C@@H](OC(=O)C(C)(CO)CO)[C@H](OC)C2)CC(=O)[C@H](C)/C=C(\C)[C@@H](O)[C@@H](OC)C(=O)[C@H](C)C[C@H](C)/C=C/C=C/C=C/1C [Temsirolimus] (max concentration tested 100 nM)', 'percent inhibition of viability', '1.82%'),
  ('COc1cccc2c1C(=O)c1c(O)c3c(c(O)c1C2=O)C[C@@](O)(C(C)=O)C[C@@H]3O[C@H]1C[C@H](N)[C@H](O)[C@H](C)O1 [Daunorubicin] (max concentration tested 1000 nM)', 'percent inhibition of viability', '-6.49%'),
  ('CN(C)C/C=C/C(=O)Nc1cc2c(Nc3ccc(F)c(Cl)c3)ncnc2cc1O[C@H]1CCOC1 [Afatinib] (max concentration tested 1000 nM)', 'percent inhibition of viability', '-3.84%'),
  ('O=C(c1ccc(F)c(F)c1Nc1ccc(I)cc1F)N1CC(O)([C@@H]2CCCCN2)C1 [Cobimetinib] (max concentration tested 1000 nM)', 'percent inhibition of viability', '-7.24%'),
  ('Cc1c2oc3c(C)ccc(C(=O)N[C@@H]4C(=O)N[C@H](C(C)C)C(=O)N5CCC[C@H]5C(=O)N(C)CC(=O)N(C)[C@@H](C(C)C)C(=O)O[C@@H]4C)c3nc-2c(C(=O)N[C@@H]2C(=O)N[C@H](C(C)C)C(=O)N3CCC[C@H]3C(=O)N(C)CC(=O)N(C)[C@@H](C(C)C)C(=O)O[C@@H]2C)c(N)c1=O [Dactinomycin] (max concentration tested 1000 nM)', 'percent inhibition of viability', '1.4%'),
  ('CC1(C)CCC(CN2CCN(c3ccc(C(=O)NS(=O)(=O)c4ccc(NCC5CCOCC5)c([N+](=O)[O-])c4)c(Oc4cnc5[nH]ccc5c4)c3)CC2)=C(c2ccc(Cl)cc2)C1 [Venetoclax] (max concentration tested 1000 nM)', 'percent inhibition of viability', '3.87%');

Field: next molecule
Fill in percent inhibition of viability for record O=C(/C=C/c1cccnc1)NCCCCC1CCN(C(=O)c2ccccc2)CC1 [Daporinad] (max concentration tested 1000 nM)
-5.42%

###

system: SNK-6 (IL-2 2.5 ng/mL); assay: drug sensitivity score (DSS) (DSS units); higher = more sensitive; extreme values may be limits of the assay; details: 72 h
Label class 1 when drug sensitivity score >= 20; otherwise class 0.

Below are worked cases with known answers.
INSERT INTO results (molecule, classlabel) VALUES
  ('O=C(/C=C/c1cccnc1)NCCCCC1CCN(C(=O)c2ccccc2)CC1 [Daporinad] (max concentration tested 1000 nM)', 'class 1'),
  ('CCS(=O)(=O)N1CC(CC#N)(n2cc(-c3ncnc4[nH]ccc34)cn2)C1 [Baricitinib] (max concentration tested 2500 nM)', 'class 0'),
  ('N#CC(c1ccnc(OCc2ccc(CN3CCOCC3)cc2)n1)c1nc2ccccc2s1 (stereo unspecified) [Bentamapimod] (max concentration tested 10000 nM)', 'class 0'),
  ('Cc1cnc(NC(=O)Nc2cc(Br)c(C)cc2OC[C@@H]2CNCCO2)cn1 [Rabusertib] (max concentration tested 1000 nM)', 'class 0');

Has CCOC(=O)CCNc1cc(N2CCc3ccccc3CC2)nc(-c2ccccn2)n1 [GSK-J4] (max concentration tested 100000 nM) a recorded drug sensitivity score greater than or equal to 20?
class 0

###

system: normal primary NK cells, pool 3 (3 donors) (IL-2 2.5 ng/mL); test: percent inhibition of viability; higher = more inhibition; conditions: 72 h; 100 nM
Below is a list of entries, each paired with its recorded percent inhibition of viability value.
Report the value in % with no unit label.

INSERT INTO assay_data (compound, observedvalue) VALUES
  ('C=CC(=O)Nc1cc2c(Nc3ccc(F)c(Cl)c3)ncnc2cc1OCCCN1CCOCC1 [Canertinib] (max concentration tested 10000 nM)', 0.7);

Field: next compound
Determine reported percent inhibition of viability for O=c1[nH]c(=O)n([C@H]2C[C@H](O)[C@@H](CO)O2)cc1F [Floxuridine] (max concentration tested 10000 nM) ; test system: normal primary NK cells, pool 3 (3 donors) (IL-2 2.5 ng/mL).
-9.62

###

tested on: NK-YS (IL-2 2.5 ng/mL); experiment: percent inhibition of viability; higher = more inhibition; details: 72 h; 100 nM
Below is a list of entries, each paired with its recorded percent inhibition of viability value.
Report the value in % with no unit label.

Observe how each entry below is paired with its result.
INSERT INTO results (compound, testreadout, unittext, observedvalue) VALUES
  ('COc1cc(F)c(F)c(Nc2ccc(I)cc2F)c1NS(=O)(=O)C1(C[C@H](O)CO)CC1 [Refametinib] (max concentration tested 10000 nM)', 'percent inhibition of viability', '%', 5),
  ('COc1cccc2c1c(O)c(C(=O)N(C)c1ccc(C(F)(F)F)cc1)c(=O)n2C [Tasquinimod] (max concentration tested 10000 nM)', 'percent inhibition of viability', '%', 12.7),
  ('COC(=O)c1ccc2c(c1)NC(=O)/C2=C(\Nc1ccc(N(C)C(=O)CN2CCN(C)CC2)cc1)c1ccccc1 [Nintedanib] (max concentration tested 10000 nM)', 'percent inhibition of viability', '%', -3.24),
  ('CNC(=O)c1cccc2cc(Oc3ccnc4cc(OCC5(N)CC5)c(OC)cc34)ccc12 [Lucitanib] (max concentration tested 10000 nM)', 'percent inhibition of viability', '%', -0.96),
  ('CCOC(=O)CCNc1cc(N2CCc3ccccc3CC2)nc(-c2ccccn2)n1 [GSK-J4] (max concentration tested 100000 nM)', 'percent inhibition of viability', '%', -3.86);

Field: next compound
Fill in percent inhibition of viability for record CCCOc1ccn2c(C(C)=O)cc(-c3ccccc3S(C)(=O)=O)c2c1 [GSK2801] (max concentration tested 10000 nM)
-2.35

###

Below is a list of entries, each paired with its recorded percent inhibition of viability value.
test system: NK-92 (IL-2 2.5 ng/mL); experiment: percent inhibition of viability; higher = more inhibition; settings: 72 h; 10 nM
Report the value in % with no unit label.

INSERT INTO measurements (compound, unittext, observedvalue) VALUES
  ('CCS(=O)(=O)c1cccc(-c2cc(C(=O)NC3CCN(C)CC3)c(C)c3[nH]c4ncc(C)cc4c23)c1 [TAK-901] (max concentration tested 1000 nM)', '%', -4.19),
  ('COc1ccc(C[C@H](NC(=O)[C@H](C)NC(=O)CN2CCOCC2)C(=O)N[C@@H](Cc2ccccc2)C(=O)C2(C)CO2)cc1 (stereo in doubt) [ONX-0914] (max concentration tested 10000 nM)', '%', 15.8),
  ('CC[C@]1(O)C[C@@H]2CN(CCc3c([nH]c4ccccc34)[C@@](C(=O)OC)(c3cc4c(cc3OC)N(C)[C@H]3[C@@](O)(C(=O)OC)[C@H](OC(C)=O)[C@]5(CC)C=CCN6CC[C@]43[C@@H]65)C2)C1 [Vinblastine] (max concentration tested 1000 nM)', '%', 64.9),
  ('NC(=O)c1ccc(I)c([N+](=O)[O-])c1 [Iniparib] (max concentration tested 10000 nM)', '%', 4.1),
  ('Cn1cc(C2=Nc3cc(NC(=O)C(N)C4CCCCC4)cc4c3C2=CNNC4=O)cn1 (centres undefined) (max concentration tested 10000 nM)', '%', -3.7),
  ('Cc1cc(Nc2cc(CN3CCOCC3)c3nc(C)c(Cc4ccc(Cl)cc4F)n3n2)n[nH]1 [Gandotinib] (max concentration tested 10000 nM)', '%', 11.2),
  ('O=C(O)CC1CC(c2ccccc2)=NO1 (centres undefined) [VGX-1027] (max concentration tested 10000 nM)', '%', -4.08),
  ('CS(=O)(=O)CCNCc1ccc(-c2ccc3ncnc(Nc4ccc(OCc5cccc(F)c5)c(Cl)c4)c3c2)o1 [Lapatinib] (max concentration tested 1000 nM)', '%', 5.1);

Fill in percent inhibition of viability for record CN(c1ncccc1CNc1nc(Nc2ccc3c(c2)CC(=O)N3)ncc1C(F)(F)F)S(C)(=O)=O (max concentration tested 10000 nM)
-22

Fill in percent inhibition of viability for record COc1cc(F)c(F)c(Nc2ccc(I)cc2F)c1NS(=O)(=O)C1(C[C@H](O)CO)CC1 [Refametinib] (max concentration tested 10000 nM)
-1.5
